Listed compounds paired with reported pIC50
- EXPERIMENTAL TARGET: recombinant human SYK360-635 (Homo sapiens, UniProt P43405)
- Construct: made in house
- RUN DESCRIPTION: Determination of IC50 of Spleen Tyrosine Kinase (SYK) inhibition, 33P ATP filtration assay
- Type: biochemical
- EXPERIMENTAL CONDITIONS: SYK aa 360-635 0.5 nM; ATP 20 μM, peptide 5 μM, 0.1% BSA; read-out: SYK_ENZYME_FILTRATION/v1, BSA
pIC50 (log units): -log10 of the concentration in mol/L.

Solved cases below.
> print(dat)
                                   compound                       experimental.target  value.measured
1  Cn1nc(-c2cnc3[nH]cc(C(=O)N[C@H]4CCCOC4)c3n2)c2ccc(Cl)cc21 [Example I-138]  recombinant human SYK360-635 (Homo sapiens, UniProt P43405)            7.66
2  COC[C@@H](NC(=O)c1c[nH]c2ncc(-c3nn(C)c4cc(F)ccc34)nc12)[C@H](C)OC [Example I-189]  recombinant human SYK360-635 (Homo sapiens, UniProt P43405)            6.61
3  CC(C)(C)NC(=O)c1c[nH]c2ncc(-c3cccc4cn[nH]c34)nc12 [Example I-421]  recombinant human SYK360-635 (Homo sapiens, UniProt P43405)            6.79
4  CC(O)C(C)(C)NC(=O)c1c[nH]c2ncc(-c3nn(C)c4cc(Cl)ccc34)nc12 (centres unmarked) [Example I-413]  recombinant human SYK360-635 (Homo sapiens, UniProt P43405)            7.46
5  C[C@H](CN1CC[C@@H](F)C1)NC(=O)c1c[nH]c2ncc(-c3nn(C)c4cc(Cl)ccc34)nc12 [Example I-121]  recombinant human SYK360-635 (Homo sapiens, UniProt P43405)            6.43

Task item: # pIC50 lookup, item Cn1nc(-c2cnc3[nH]cc(C(=O)NC4(C)CCC4)c3n2)c2ccc(F)cc21 [Example I-376]
Reply: 8.55

Task item: # pIC50 lookup, item Cn1nc(-c2cnc3[nH]cc(C(=O)NC(C)(C)C#N)c3n2)c2ccc(Cl)cc21 [Example I-407]
Reply: 8.24

Task item: # pIC50 lookup, item Cn1nc(-c2cnc3[nH]cc(C(=O)NC(C)(C)C)c3n2)c2cc(OCCCC(C)(C)N)ccc21 [Example I-449, 2,2,2-trifluoroacetate]
Reply: 7.33

###

- EXPERIMENTAL TARGET: recombinant human SYK360-635 (Homo sapiens)
- Construct: made in house
- RUN DESCRIPTION: Determination of IC50 of Spleen Tyrosine Kinase (SYK) inhibition, 33P ATP filtration assay
- Assay type: biochemical
- EXPERIMENTAL CONDITIONS: SYK aa 360-635 0.5 nM; ATP 20 μM, peptide 5 μM, 0.1% BSA; read-out: SYK_ENZYME_FILTRATION/v1, BSA
pIC50: −log10 of the molar value.
Entry flag: t if pIC50 reaches 7; f if it does not.

> print(dat)
                              sample.smiles                       experimental.target  label.class
1  Cn1nc(-c2cnc3[nH]cc(C(=O)N[C@H]4CC[C@H](O)CC4)c3n2)c2ccc(Cl)cc21  recombinant human SYK360-635 (Homo sapiens)            t
2  CC(C)(C)NC(=O)c1c[nH]c2ncc(-n3ncc4cc(OC(F)F)ccc43)nc12  recombinant human SYK360-635 (Homo sapiens)            t
3  CC(C)NC(=O)c1c[nH]c2ncc(-c3nn(Cc4ccccc4)c4cc(Cl)ccc34)nc12  recombinant human SYK360-635 (Homo sapiens)            f

Task item: Evaluate COc1ccc2c(c1)c(-c1cnc3[nH]cc(C(=O)N[C@@H]4CCOC[C@@H]4N)c3n1)nn2C : pIC50 at minimum 7?
Reply: f

###

- EXPERIMENTAL TARGET: recombinant human SYK360-635 (Homo sapiens, UniProt P43405)
- Construct: made in house
- RUN DESCRIPTION: Determination of IC50 of Spleen Tyrosine Kinase (SYK) inhibition, 33P ATP filtration assay
- Assay type: biochemical
- EXPERIMENTAL CONDITIONS: SYK aa 360-635 0.5 nM; ATP 20 μM, peptide 5 μM, 0.1% BSA; read-out: SYK_ENZYME_FILTRATION/v1, BSA
Listed compounds paired with reported pIC50
pIC50 (log units): -log10 of the concentration in mol/L.

> print(dat)
                              sample.smiles  measured.metric  value.measured
1  Cn1nc(-c2cnc3[nH]cc(C(=O)N[C@@H]4CCCOC4)c3n2)c2ccc(Cl)cc21            pIC50            8.07
2  Cc1ccc2c(-c3cnc4[nH]cc(C(=O)NC(C)(C)C5CC5)c4n3)nn(C)c2c1            pIC50            7.93
3  CC(C)NC(=O)c1c[nH]c2ncc(-c3nn(Cc4nccn4C)c4cc(Cl)ccc34)nc12            pIC50            7.96

Turning now to a further record.
Task item: # pIC50 lookup, item CC(C)NC(=O)c1c[nH]c2ncc(-c3nn(CCCN(C)C)c4ccc(OC(F)F)cc34)nc12
Reply: 7.88

###

- EXPERIMENTAL TARGET: JAK3: Recombinant human kinase domain (Homo sapiens)
- Construct: JAK3: Recombinant human kinase domain from Millipore (Cat #14-629) or prepared
- Sequence (P52333 822-1111 limits assumed): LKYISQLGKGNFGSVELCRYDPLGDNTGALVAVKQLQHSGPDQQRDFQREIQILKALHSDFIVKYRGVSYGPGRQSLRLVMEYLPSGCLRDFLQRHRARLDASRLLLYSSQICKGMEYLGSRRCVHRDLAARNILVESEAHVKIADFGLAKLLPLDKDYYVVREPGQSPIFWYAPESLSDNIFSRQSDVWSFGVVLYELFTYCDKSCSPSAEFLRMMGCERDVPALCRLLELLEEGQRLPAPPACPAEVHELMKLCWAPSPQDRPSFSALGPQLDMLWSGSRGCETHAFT
- RUN DESCRIPTION: Determination of IC50 of Janus Kinase (JAK) inhibition, radioactive end-point 33P-ATP assay, JAK3
- EXPERIMENTAL CONDITIONS: ATP 1.5 uM, peptide 50 uM, 20 minutes, read-out: JAK3-INHIB-DR/v1~NO ADDITIVE~Enzyme_Conc = 100
MEASURED METRIC: pIC50
pIC50 (log units): -log10 of the concentration in mol/L.

> print(dat)
                              sample.smiles                       experimental.target  value.measured
1  Cn1nc(-c2cnc3[nH]cc(C(=O)N[C@H]4CC[C@H](O)CC4)c3n2)c2ccc(Cl)cc21  JAK3: Recombinant human kinase domain (Homo sapiens)            7.88
2  C[C@@H](NC(=O)c1c[nH]c2ncc(-c3nn(C)c4cc(F)ccc34)nc12)c1cc(C(F)(F)F)ccn1  JAK3: Recombinant human kinase domain (Homo sapiens)            7.82

Turning now to a further record.
Task item: Param readout = pIC50; param system = JAK3: Recombinant human kinase domain (Homo sapiens); param query = C[C@@H](NC(=O)c1c[nH]c2ncc(-c3nn(C)c4cc(F)ccc34)nc12)c1ccc(C#N)cc1 ; response: value
Reply: 7.83

###

- EXPERIMENTAL TARGET: recombinant human SYK360-635 (Homo sapiens)
- Construct: made in house
- RUN DESCRIPTION: Determination of IC50 of Spleen Tyrosine Kinase (SYK) inhibition, 33P ATP filtration assay
- Format: biochemical
- EXPERIMENTAL CONDITIONS: SYK aa 360-635 0.5 nM; ATP 20 μM, peptide 5 μM, 0.1% BSA; read-out: SYK_ENZYME_FILTRATION/v1, BSA
MEASURED METRIC: pIC50
pIC50 (log units): -log10 of the concentration in mol/L.

> print(dat)
                                   compound  value.measured
1  CC(C)NC(=O)c1c[nH]c2ncc(-c3nn(C)c4ccc(OC(F)F)cc34)nc12            8.35
2  CC(C)(C)NC(=O)c1c[nH]c2ncc(-c3nn(CCC4OCCCO4)c4ccc(OC(F)F)cc34)nc12            7.55
3  CC(NC(=O)c1c[nH]c2ncc(-c3nn(CCN(C)C)c4cc(Cl)ccc34)nc12)c1cccnc1 (stereo not shown)            6.45
4  CC(C)(C)NC(=O)c1c[nH]c2ncc(-c3nccc4cc[nH]c34)nc12            6.01
5  C[C@H](CN1CC[C@H](F)C1)NC(=O)c1c[nH]c2ncc(-c3nn(C)c4cc(Cl)ccc34)nc12            6.55

Task item: Param readout = pIC50; param system = recombinant human SYK360-635 (Homo sapiens); param query = C[C@@H](NC(=O)c1c[nH]c2ncc(-c3nn(C)c4cc(F)ccc34)nc12)C(C)(F)F ; response: value
Reply: 8.14

Task item: Param readout = pIC50; param system = recombinant human SYK360-635 (Homo sapiens); param query = CC(C)(C)NC(=O)c1c[nH]c2ncc(-c3nn(CC4CC4)c4ccc(OC(F)F)cc34)nc12 ; response: value
Reply: 7.73
